// provenance: ChEMBL document CHEMBL4265891

Let's look at some molecules and their measured EC50.
TARGET_SYSTEM: Metabotropic glutamate receptor 2 (Homo sapiens)
Sequence (Q14416 whole entry): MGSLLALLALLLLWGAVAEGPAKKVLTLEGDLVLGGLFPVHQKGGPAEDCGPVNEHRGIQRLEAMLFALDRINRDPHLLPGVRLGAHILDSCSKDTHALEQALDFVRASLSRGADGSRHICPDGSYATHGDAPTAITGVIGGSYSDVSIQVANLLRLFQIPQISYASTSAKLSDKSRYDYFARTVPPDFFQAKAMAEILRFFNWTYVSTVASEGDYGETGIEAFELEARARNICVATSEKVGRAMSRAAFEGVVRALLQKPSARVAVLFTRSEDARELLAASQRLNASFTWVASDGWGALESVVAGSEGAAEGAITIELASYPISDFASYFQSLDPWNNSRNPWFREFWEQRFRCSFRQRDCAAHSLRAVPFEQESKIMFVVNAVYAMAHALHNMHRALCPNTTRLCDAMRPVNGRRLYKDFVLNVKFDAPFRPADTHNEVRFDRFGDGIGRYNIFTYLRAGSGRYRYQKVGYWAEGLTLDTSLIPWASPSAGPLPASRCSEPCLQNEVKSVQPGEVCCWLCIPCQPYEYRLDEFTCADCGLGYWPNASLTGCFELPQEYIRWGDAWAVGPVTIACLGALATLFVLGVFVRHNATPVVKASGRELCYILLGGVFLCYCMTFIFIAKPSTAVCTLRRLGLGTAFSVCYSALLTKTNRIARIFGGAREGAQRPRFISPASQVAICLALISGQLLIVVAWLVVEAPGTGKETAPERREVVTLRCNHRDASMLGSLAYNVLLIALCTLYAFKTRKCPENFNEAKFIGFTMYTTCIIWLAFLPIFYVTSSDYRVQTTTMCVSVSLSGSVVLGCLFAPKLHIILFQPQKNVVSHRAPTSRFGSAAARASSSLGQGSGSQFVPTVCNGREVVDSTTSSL
PROCEDURE_SUMMARY: Positive allosteric modulation of recombinant human Gi-coupled mGluR2 expressed in HEK293 Flp-in-T-REx cells with Galpha16 assessed as increase in glutamate-induced forskolin-mediated cAMP accumulation after 5 mins by fluorescence analysis
Just the number in nM, nothing appended.

CCc1cn2c(nc1=O)O[C@H](COc1ccc(-c3cccc(C)c3C)cc1)C2: 13
Cc1cccc(-c2ccc(OC[C@@H]3Cn4c(C)cc(=O)nc4O3)cc2)c1C: 274
Cc1cccc(-c2ccc(OC[C@@H]3Cn4ccc(=O)nc4O3)cc2)c1C: 330
CC(C)(C)c1ccc(OC[C@@H]2Cn3ccc(=O)nc3O2)cc1: 1360

Next molecule, please.
[in] Given the molecule Cc1cccc(-c2ccc(OC[C@@H]3Cn4cc(C)c(=O)nc4O3)cc2)c1C , write its reported EC50.
[out] 14
